Test system: Saccharomyces cerevisiae;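 also: PSI is a weighted mean of sequencing reads over stability bins, variants kept only with over 10 reads, mCherry proximal and sfGFP distal, peptide attached via GGGS linker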
TEST: protein stability index of tFT-peptide fusion (C-terminal peptide) (PSI (0-1 scale)); higher = more stable (slower turnover)
CONDITIONS USED: genetic background: das1 deletion; temperature: 30 C

PRIMARY SEQUENCE	protein stability index
VLFFLVTSSVYF	0.201
IEVGVAILLLGE	0.551
CDSRIRKIWSYL	0.774
WVWFGCVLGYRV	0.426
ESCWVSRVGVCR	0.649
GTWCLAMARFCA	0.662
VWACWCGWVLLM	0.314
SFFCTRVLWVFQ	0.539
VYVLVFNMENIS	0.382
WGFSVRFVLSVF	0.124
PPPRLPLLSCSQ	0.669
GVFVVVGEASVH	0.402
LAPSRNRSVWLV	0.649
ASPLRLFIPFLF	0.632
VACLRLTVYVMG	0.128
GRTDFSTLLLIC	0.564
VVVRARVFFHIF	0.361
SLIFRVGKFKSL	0.654
ACALRSLPPRPY	0.65
RFYLFLFFVRST	0.316
WPPPPPSLLLLC	0.473
SCIVRTLVPCPS	0.253
WHFMVFFCFCVD	0.317
FYTYILTVAEAL	0.457
IPFRRCFWFFWV	0.593
